- test-method-notes: Aqueous stability assay (HPLC, pseudo first-order half-life)
- Assay type: physicochemical
- condition-label: buffer; DPBS pH 7.0-7.3, 1 mg/mL, room temperature; read-out: PBS t1/2 (converted)

molecule	value-units	half-life
C/C(=N\OC(=O)N(C)CCO)[C@H]1CC[C@H]2[C@@H]3CCC4=CC(=O)CC[C@]4(C)[C@H]3CC[C@]12C	h	38.5
C/C(=N\OC(=O)N(C)CCNCCO)[C@H]1CC[C@H]2[C@@H]3CCC4=CC(=O)CC[C@]4(C)[C@H]3CC[C@]12C [32d]	h	30.4

----------
- test-method-notes: Nephelometry (aqueous solubility)
- Assay type: physicochemical
- condition-label: DPBS with 1% DMSO, aqueous buffer, kinetic from dmso stock, DPBS pH 7.0-7.3, 1% DMSO, 25° C.
Structures can show the parent of a compound that is named as a salt.

molecule	solubility at 90 min
C/C(=N\OC(=O)NCCN(C)C)[C@H]1CC[C@H]2[C@@H]3CCC4=CC(=O)CC[C@]4(C)[C@H]3CC[C@]12C.Cl [compound 34]	> 750 µM
C/C(=N\OC(=O)N(C)CCO)[C@H]1CC[C@H]2[C@@H]3CCC4=CC(=O)CC[C@]4(C)[C@H]3CC[C@]12C [compound 33]	124 µM
CNCCN(CCNC)C(=O)O/N=C(\C)[C@H]1CC[C@H]2[C@@H]3CCC4=CC(=O)CC[C@]4(C)[C@H]3CC[C@]12C.Cl.Cl [53i]	> 750 µM
C/C(=N\OC(=O)NC[C@@H]1CCCN1)[C@H]1CCC2[C@@H]3CCC4=CC(=O)CC[C@]4(C)[C@H]3CC[C@@]21C (stereo partly shown) [32g, hydrochloride]	> 750 µM
CNCCN(CC(C)C)C(=O)O/N=C(\C)[C@H]1CC[C@H]2[C@@H]3CCC4=CC(=O)CC[C@]4(C)[C@H]3CC[C@]12C.O=C(O)C(F)(F)F [53e]	> 750 µM
C/C(=N\OC(=O)N(CCO)CCNCCO)[C@H]1CC[C@H]2[C@@H]3CCC4=CC(=O)CC[C@]4(C)[C@H]3CC[C@]12C.Cl [54d]	> 750 µM
C/C(=N\OC(=O)N(CCN)CCN)[C@H]1CC[C@H]2[C@@H]3CCC4=CC(=O)CC[C@]4(C)[C@H]3CC[C@]12C.O=C(O)C(F)(F)F.O=C(O)C(F)(F)F [53j]	> 750 µM
C/C(=N\OC(=O)N(CCNC(C)C)C(C)C)[C@H]1CC[C@H]2[C@@H]3CCC4=CC(=O)CC[C@]4(C)[C@H]3CC[C@]12C.Cl [54b]	> 500 µM
CNCCN(C(=O)O/N=C(\C)[C@H]1CC[C@H]2[C@@H]3CCC4=CC(=O)CC[C@]4(C)[C@H]3CC[C@]12C)C(C)C.O=C(O)C(F)(F)F [53a]	> 750 µM
CCNCCN(CC)C(=O)O/N=C(\C)[C@H]1CC[C@H]2[C@@H]3CCC4=CC(=O)CC[C@]4(C)[C@H]3CC[C@]12C.Cl [54a]	> 750 µM
CNCCN(CCN(C)C)C(=O)O/N=C(\C)[C@H]1CC[C@H]2[C@@H]3CCC4=CC(=O)CC[C@]4(C)[C@H]3CC[C@]12C.O=C(O)C(F)(F)F [53f]	> 500 µM
CNCCN(C(=O)O/N=C(\C)[C@H]1CC[C@H]2[C@@H]3CCC4=CC(=O)CC[C@]4(C)[C@H]3CC[C@]12C)C1CCCC1.O=C(O)C(F)(F)F [53d]	> 750 µM
C/C(=N\OC(=O)NC[C@@H]1CCCCN1)[C@H]1CCC2[C@@H]3CCC4=CC(=O)CC[C@]4(C)[C@H]3CC[C@@]21C (stereo partly shown) [32i, hydrochloride]	> 750 µM
CNCCN(C(=O)O/N=C(\C)[C@H]1CC[C@H]2[C@@H]3CCC4=CC(=O)CC[C@]4(C)[C@H]3CC[C@]12C)C1CC1.O=C(O)C(F)(F)F [53b]	> 750 µM
CNCCN(C)C(=O)O/N=C(\C)[C@H]1CC[C@H]2[C@@H]3CCC4=CC(=O)CC[C@]4(C)[C@H]3CC[C@]12C [32b, hydrochloride]	> 750 µM
C/C(=N\OC(=O)N(C)CCNCCO)[C@H]1CC[C@H]2[C@@H]3CCC4=CC(=O)CC[C@]4(C)[C@H]3CC[C@]12C [32d]	> 500 µM
